# Tested on: NCI-H226 lung
# method_summary: NCI-60 one-dose screen, 48 h (100 = growth as untreated, 0 = no growth, -100 = all killed)
# test_parameters: 10 µM
This is part of a sample that, as a whole, favours compounds with a hit. Of some 83,000 tested, about 20% had one in any assay.
Classes based on growth: bottom (below 50%), middle (50% to below 90%), top (90% or more)

Pick a category. Item: NS(=O)(=O)c1ccc(Br)cc1 top

Pick a category. Item: CN(C)c1ncnc2c1nnn2C1OC(CO)C(O)C1O (stereo not given) bottom

Pick a category. Item: COc1ccc(CCN2CCC(Nc3nc4ccccc4n3Cc3ccc(F)cc3)CC2)cc1 middle

Pick a category. Item: COc1ccc(C(=O)CC(CC(=O)c2ccc(OC)cc2)c2c(C)nn(-c3ccccc3)c2Cl)cc1 top

Pick a category. Item: CC(C)(C)OC(=O)CC(S(=O)(=O)c1ccccc1)S(=O)(=O)c1ccccc1 top

Pick a category. Item: CCCC1(CN2c3ccccc3Sc3ccc(Cl)cc32)CCN(CC)C1 (stereo not given) bottom

Pick a category. Item: CCN(CC)CCN1c2nc3ccccc3cc2Sc2cc3ccccc3nc21 bottom

Pick a category. Item: CCN(CCCNc1cc2c(c(N)c1S(=O)(=O)O)C(=O)c1ccccc1C2=O)c1ccccc1 middle
